# measurement description: Solubility measurement
# Type: physicochemical
# stated conditions: aqueous buffer, kinetic from dmso stock; second solution of Japanese Pharmacopoeia (pH 6.8), room temperature, stirring 5 hours, LC-MS/MS
measurement label: solubility at 5 h (µM)
Answers are plain numbers, in µM.

Please review the following examples before continuing.
| compound | measurement label | reported result |
| --- | --- | --- |
| CS(=O)(=O)NC(=O)c1ccc(Oc2cc(NC(=O)N3CCC(O)(C4CCCC4)CC3)cc(C(F)(F)F)c2)cc1 [Example 5 (1)] | solubility at 5 h | 72 |
| O=C(Nc1cc(Oc2ccc(C3(C(=O)O)CCCC3)cc2)cc(C(F)(F)F)c1)N1CCC(O)(C2CCCCC2)C1 (centres unmarked) [Example 5 (7)] | solubility at 5 h | 74 |

Below: the item to evaluate.
# solubility at 5 h (compound: CC(C)CC1(O)CCN(C(=O)Nc2cc(C(=O)Oc3ccc(C(C)(C)C(=O)O)cc3)cc(C(F)(F)F)c2)CC1 [Example 8] ) is 90

----------
Please provide measured IC50 for the entries that follow.
# target: rat S1P2 (EDG-5) (Rattus norvegicus)
# Construct: expressed in transfected cells; host or cells: CHO cells (blasticidin S selection)
# Sequence (P47752 whole entry): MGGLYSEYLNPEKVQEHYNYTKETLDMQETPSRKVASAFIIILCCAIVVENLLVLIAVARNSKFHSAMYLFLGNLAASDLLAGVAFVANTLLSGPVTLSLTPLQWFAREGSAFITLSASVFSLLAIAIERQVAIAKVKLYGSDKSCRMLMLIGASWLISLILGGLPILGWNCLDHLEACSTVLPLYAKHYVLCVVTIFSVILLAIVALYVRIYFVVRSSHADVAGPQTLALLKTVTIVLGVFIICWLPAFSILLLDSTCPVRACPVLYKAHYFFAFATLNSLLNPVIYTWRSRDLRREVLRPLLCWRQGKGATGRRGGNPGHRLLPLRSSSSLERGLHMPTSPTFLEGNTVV
# measurement description: S1P2 (EDG-5) antagonistic activity by monitoring the change in intracellular calcium ion concentration (rat)
# Type: cell-based
# stated conditions: CHO cells overexpressing rat S1P2 (EDG-5) gene; suppression of S1P (30 or 300 nM)-induced intracellular calcium increase, Fura2-AM
Output should be the measured figure followed by the unit it is expressed in.

Some solved cases for reference:
| compound | IC50 |
| --- | --- |
| CCC(CC)CC1(O)CCN(C(=O)Nc2cccc(Oc3ccc(F)cc3)c2)CC1 [Comparative compound B, reference compound] | 27 nM |
| CS(=O)(=O)NC(=O)c1ccc(Oc2cc(NC(=O)N3CCC(O)(C4CCCC4)CC3)cc(C(F)(F)F)c2)cc1 | 9.4 nM |
| O=C(Nc1cc(Oc2ccc(C3(C(=O)O)CCCC3)cc2)cc(C(F)(F)F)c1)N1CCC(O)(C2CCCCC2)C1 (stereo not shown) | 5.1 nM |

The recorded IC50 for entry `CC(C)CC1(O)CCN(C(=O)Nc2cc(C(=O)Oc3ccc(C(C)(C)C(=O)O)cc3)cc(C(F)(F)F)c2)CC1` equals 3 nM

----------
# target: human S1P2 (EDG-5) (Homo sapiens, UniProt O95136)
# Construct: expressed in transfected cells; host or cells: CHO cells (G418 selection)
# Sequence (O95136 whole entry): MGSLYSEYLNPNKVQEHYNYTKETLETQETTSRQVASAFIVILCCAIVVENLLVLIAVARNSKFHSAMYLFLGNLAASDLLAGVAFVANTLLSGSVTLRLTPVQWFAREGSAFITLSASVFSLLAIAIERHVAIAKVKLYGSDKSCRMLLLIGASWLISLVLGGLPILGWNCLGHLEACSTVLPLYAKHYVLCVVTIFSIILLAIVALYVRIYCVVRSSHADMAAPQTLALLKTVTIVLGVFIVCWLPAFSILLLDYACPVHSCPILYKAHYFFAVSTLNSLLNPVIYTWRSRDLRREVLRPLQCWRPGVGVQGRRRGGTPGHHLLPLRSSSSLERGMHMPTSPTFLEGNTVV
# measurement description: S1P2 (EDG-5) antagonistic activity by monitoring the change in intracellular calcium ion concentration (human)
# Assay type: cell-based
# stated conditions: CHO cells overexpressing human S1P2 (EDG-5) gene; suppression of S1P (30 or 300 nM)-induced intracellular calcium increase, Fura2-AM
Would you kindly list IC50 for each of these molecules?
Hey, just the number and the unit after it is fine.

For orientation, consider the following solved cases.
| molecule | reported result |
| --- | --- |
| CC(C)CC1(O)CCN(C(=O)Nc2cc(C(=O)Oc3ccc(C(C)(C)C(=O)O)cc3)cc(C(F)(F)F)c2)CC1 | 7.3 nM |
| CCC(CC)CC1(O)CCN(C(=O)Nc2cccc(Oc3ccc(F)cc3)c2)CC1 [Comparative compound B, reference compound] | 1200 nM |
| O=C(Nc1cc(Oc2ccc(C3(C(=O)O)CCCC3)cc2)cc(C(F)(F)F)c1)N1CCC(O)(C2CCCCC2)C1 (stereo not shown) | 8.4 nM |

IC50 of `CS(=O)(=O)NC(=O)c1ccc(Oc2cc(NC(=O)N3CCC(O)(C4CCCC4)CC3)cc(C(F)(F)F)c2)cc1` , assay on human S1P2 (EDG-5) (Homo sapiens, UniProt O95136), is 4.6 nM
